assay: qHTS Assay for inhibitors of the human cytomegalovirus (HCMV); settings: HFF cells, HCMV-luciferase reporter, 72 h; at 57.5 µM; also: % is scaled to controls: 0 for no effect and ±100 for the full control effect
Among all 410,000 compounds or so, about 18,000 (4.4%) were called active. Inconclusive results (about 7%) are left out. Rule as the data show it: active = activity change below about -60%; inconclusive = no clear call, values can overlap the other calls; inactive = above about -39%. Only a selection was taken, and actives are over-represented in it overall.
Mark one answer only. Choices: label 1 (active), label 0 (inactive)

Inquiry: I'd appreciate the recorded outcome for Cc1cccc(NC(=S)N2CCC(C(=O)c3ccc(F)cc3)CC2)c1 from this test.
Reply text: label 0

Inquiry: I'd appreciate the recorded outcome for CCOC(=O)c1cnc2c(C)cc(Cl)cc2c1NCCc1ccc(OC)c(OC)c1 from this test.
Reply text: label 0

Inquiry: I'd appreciate the recorded outcome for COC(=O)C[C@@H]1C=C[C@@H](NC(=O)c2cccnc2)[C@@H](CO)O1 from this test.
Reply text: label 0

Inquiry: I'd appreciate the recorded outcome for O=C(NCC(c1cccs1)N1CCOCC1)c1cc(Cl)ccc1[N+](=O)[O-] (stereo not given) from this test.
Reply text: label 0

Inquiry: I'd appreciate the recorded outcome for O=C(NC1CCCC1)C(c1ccco1)N(C(=O)c1csnn1)c1ccccc1 (stereo not given) from this test.
Reply text: label 0

Inquiry: I'd appreciate the recorded outcome for COC(=O)c1ccc(NC(=O)c2cccc3c2C(=O)N(C2CCCCC2)C3)cc1 from this test.
Reply text: label 0

Inquiry: I'd appreciate the recorded outcome for CC(=O)c1ccc(S(=O)(=O)N2CCN(C(=O)/C=C/c3ccc4ccccc4n3)CC2)cc1 from this test.
Reply text: label 1

Inquiry: I'd appreciate the recorded outcome for CN(C)CCNC(=O)c1cccc(-c2cnc3c(NC=O)cc(-c4cccc(C(F)(F)F)c4)cn23)c1 from this test.
Reply text: label 1

Inquiry: I'd appreciate the recorded outcome for C[C@]12CC[C@H](O)CC1=CCC1C2CC[C@@]2(C)C1CC[C@@H]2NC(=O)CCC(=O)O (stereo not given in full) from this test.
Reply text: label 0

Inquiry: I'd appreciate the recorded outcome for CSCCC(c1nnnn1C(C)(C)C)N1CCC(n2c(=O)[nH]c3ccccc32)CC1 (stereo not given) from this test.
Reply text: label 0

Inquiry: I'd appreciate the recorded outcome for CCCOC(=O)c1c(NC(=O)c2cc3nc(-c4ccc(OC)cc4)cc(C(F)(F)F)n3n2)sc2c1CCCC2 from this test.
Reply text: label 0

Inquiry: I'd appreciate the recorded outcome for CCCCN(C(=O)C1=NN(c2cc(C)ccc2C)C(=O)CC1)c1c(N)n(CCC)c(=O)[nH]c1=O from this test.
Reply text: label 0

Inquiry: I'd appreciate the recorded outcome for Cc1cccc(NC(=S)NCc2ccc3[nH]c4c(c3c2)CCCC4)c1 from this test.
Reply text: label 1

Inquiry: I'd appreciate the recorded outcome for O=c1[nH]c2ccccc2n1C1CCN(C(c2ccccc2)c2nnnn2Cc2ccccc2)CC1 (stereo not given) from this test.
Reply text: label 1

Inquiry: I'd appreciate the recorded outcome for CSc1ccc(CCNC(=O)c2cnn(-c3ccccc3)c2-n2cccc2)cc1 from this test.
Reply text: label 0

###

experiment: qHTS Assay for inhibitors of the human cytomegalovirus (HCMV); conditions: HFF cells, HCMV-luciferase reporter, 72 h; at 57.5 µM; also: % is scaled to controls: 0 for no effect and ±100 for the full control effect
About 18,000 (4.4%) of roughly 410,000 compounds were called active. Not shown: some 7% with an inconclusive outcome. Rule as the data show it: active = activity change below about -60%; inconclusive = no clear call, values can overlap the other calls; inactive = above about -39%. What follows is part of a selection rich in actives, with near analogues and random picks from the rest.
Mark one answer only. Choices: true (active), false (inactive)

Inquiry: I'd appreciate the recorded outcome for CC(C)c1ccc(O)c(CN2CCN(c3ccccc3)CC2)c1 from this test.
Reply text: false

Inquiry: I'd appreciate the recorded outcome for O=C(/C=C/c1ccc(Cl)c([N+](=O)[O-])c1)c1cccnc1 from this test.
Reply text: true

Inquiry: I'd appreciate the recorded outcome for COc1ccccc1CN1CCCC(N2CCN(c3ccc(F)cc3)CC2)C1 (stereo not drawn) from this test.
Reply text: false

Inquiry: I'd appreciate the recorded outcome for O=C(NC1CC(=O)N(c2ccc(Cl)cc2)C1)C1CCCC1 (stereo not drawn) from this test.
Reply text: false

Inquiry: I'd appreciate the recorded outcome for CCOC(=O)C1=C(c2ccccc2)O/C(=C(/C(=O)OC)C(F)(F)F)S1 from this test.
Reply text: false

Inquiry: I'd appreciate the recorded outcome for CN(C)CCOC(=O)C(c1ccccc1)C1(O)CCCC1 (stereo not drawn) from this test.
Reply text: false

Inquiry: I'd appreciate the recorded outcome for COc1cc(NC(=O)Cn2nc(-c3ccc(C)c(C)c3)ccc2=O)cc(OC)c1 from this test.
Reply text: false

Inquiry: I'd appreciate the recorded outcome for Cc1ccc(N(CC(=O)NCC2CCCO2)C(=O)CNS(=O)(=O)c2ccc(Cl)cc2)cc1 (stereo not drawn) from this test.
Reply text: false
